- System: panel of breast cancer cell lines
- ASSAY_DETAILS: Compound A with targeted agents and chemotherapies, 72-hour in vitro proliferation assays
- Type: cell-based
- SETUP_CONDITIONS: HCC38; compound A × partner, 72-hour proliferation
Structures can show the parent of a compound that is named as a salt.
RECORDED_ENDPOINT: Best CI
One number for each entry.

The examples below pair each entry with its known result.
{"columns": ["COMPOUND", "Best CI"],
 "data": [
  ["CS(=O)(=O)CCNCc1ccc(-c2ccc3ncnc(Nc4ccc(OCc5cccc(F)c5)c(Cl)c4)c3c2)o1 [Lapatinib Ditosylate]", 0.87],
  ["CC/C(=C(\\c1ccccc1)c1ccc(OCCN(C)C)cc1)c1ccccc1 [Tamoxifen Citrate]", 0.98]
]}

Data request: Would you mind telling me what Best CI value was observed for CC1(C)CCC(CN2CCN(c3ccc(C(=O)NS(=O)(=O)c4ccc(NCC5CCOCC5)c([N+](=O)[O-])c4)c(Oc4cnc5[nH]ccc5c4)c3)CC2)=C(c2ccc(Cl)cc2)C1 ?
Data returned: 0.77

###

- Tested on: panel of breast cancer cell lines
- ASSAY_DETAILS: Compound A with targeted agents and chemotherapies, 72-hour in vitro proliferation assays
- Assay type: cell-based
- SETUP_CONDITIONS: HCC1569; compound A × partner, 72-hour proliferation
Tag: y if measured HSA volume is not below 9, n if it is.

Please review the entries below; each comes with its answer.
{"columns": ["MOLECULE", "SYSTEM", "LABEL"],
 "data": [
  ["CC(C)NC[C@@H](C(=O)N1CCN(c2ncnc3c2[C@H](C)C[C@H]3O)CC1)c1ccc(Cl)cc1 [GDC-0068]", "panel of breast cancer cell lines", "y"],
  ["CC1(C)CCC(CN2CCN(c3ccc(C(=O)NS(=O)(=O)c4ccc(NCC5CCOCC5)c([N+](=O)[O-])c4)c(Oc4cnc5[nH]ccc5c4)c3)CC2)=C(c2ccc(Cl)cc2)C1 [ABT-199]", "panel of breast cancer cell lines", "y"],
  ["CC(=O)c1c(C)c2cnc(Nc3ccc(N4CCNCC4)cn3)nc2n(C2CCCC2)c1=O [PD-0332991]", "panel of breast cancer cell lines", "n"]
]}

Data request: Evaluate C[C@]12CC[C@@H]3c4ccc(O)cc4C[C@@H](CCCCCCCCC[S+]([O-])CCCC(F)(F)C(F)(F)F)[C@H]3[C@@H]1CC[C@@H]2O (stereo partly shown) [Fulvestrant] : HSA volume at minimum 9?
Data returned: n

Data request: Could you verify whether the entry CCOc1cc2ncc(C#N)c(Nc3ccc(OCc4ccccn4)c(Cl)c3)c2cc1NC(=O)/C=C/CN(C)C [Neratinib] shows HSA volume of no less than 9?
Data returned: y

Data request: Textbook exercise: given the entry Cn1ncnc1[C@H]1c2n[nH]c(=O)c3cc(F)cc(c23)N[C@@H]1c1ccc(F)cc1 [BMN 673] , state whether its HSA volume is greater than or equal to 9.
Data returned: y

Data request: API: above_or_equal(metric=HSA volume, cutoff=9) for item CC(=O)O[C@@]12CO[C@@H]1C[C@H](O)[C@@]1(C)C(=O)[C@H](O)C3=C(C)[C@@H](OC(=O)[C@H](O)[C@@H](NC(=O)OC(C)(C)C)c4ccccc4)C[C@@](O)([C@@H](OC(=O)c4ccccc4)[C@H]21)C3(C)C [Docetaxel]
Data returned: n
